Ref: patent US10828271B2

System: Ju77 mesothelioma cells
Assay: MTT cell survival assay, Ju77 mesothelioma cells
Assay type: cell-based, human
Details: Homo sapiens, 72 h; Ju77 cells, 3 days incubation, MTT; read-out: IC50s (nM), inhibition of mesothelioma growth, Ju77
readoutType: IC50

*Q* What does the data say about its IC50? Entry: Nc1nc2[nH]cc(CCc3ccc(C(=O)N[C@@H](CCC(=O)O)C(=O)O)cc3)c2c(=O)[nH]1
*A* > 1000 nM

* * *

System: MSTO mesothelioma cells
Test: MTT cell survival assay, MSTO mesothelioma cells
Type: cell-based, human
Details: Homo sapiens, 72 h; MSTO cells, 3 days incubation, MTT; read-out: IC50s (nM), inhibition of mesothelioma growth, MSTO
Description: Separate incubations were performed with pemetrexed, DS/Cu (disulfiram/copper gluconate) and cisplatin for 3 days. Cell survival was determined via an MTT assay.
readoutType: IC50 (nM)
The reply should be a number in nM, with the unit left off.

*Q* Test system MSTO mesothelioma cells; read-out IC50; what value for Nc1nc2[nH]cc(CCc3ccc(C(=O)N[C@@H](CCC(=O)O)C(=O)O)cc3)c2c(=O)[nH]1 ?
*A* 920
